Target: human recombinant MC1R (Homo sapiens)
Construct: host or cells: CHO-K1
Sequence (Q01726 whole entry): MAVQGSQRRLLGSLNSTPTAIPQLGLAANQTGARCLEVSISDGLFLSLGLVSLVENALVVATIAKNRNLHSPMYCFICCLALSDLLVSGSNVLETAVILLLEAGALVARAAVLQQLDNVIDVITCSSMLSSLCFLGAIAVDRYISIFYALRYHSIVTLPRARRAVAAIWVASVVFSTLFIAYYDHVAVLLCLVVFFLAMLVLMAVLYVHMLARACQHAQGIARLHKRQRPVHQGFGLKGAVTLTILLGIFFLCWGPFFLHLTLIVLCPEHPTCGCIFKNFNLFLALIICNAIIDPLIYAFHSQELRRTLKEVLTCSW
Assay: cyclic AMP (cAMP) functional assay, MC1R stable cell line (CHO-K1)
Assay type: cell-based
Positions of bridges follow the written chain, without caps; N, C: chain ends. Non-standard residues stand in square brackets, D forms with d. Residues, ends and D or L forms follow the SMILES beside them. Triazole bridges read from a SMILES are 1,4-linked. Lys(N3) = [N-]=[N+]=NCCCC[C@H](N)C(=O)O; dPhe(4-F) = N[C@H](Cc1ccc(F)cc1)C(=O)O; Nle = CCCC[C@H](N)C(=O)O; Pra = C#CC[C@H](N)C(=O)O
property: EC50
// unit must come after the numeric part

State EC50 (human recombinant MC1R (Homo sapiens)) of CCCC[C@H](NC(C)=O)C(=O)N[C@H]1CCCCn2cc(nn2)C[C@@H](C(N)=O)NC(=O)[C@H](Cc2c[nH]c3ccccc23)NC(=O)[C@H](CCCNC(=N)N)NC(=O)[C@@H](Cc2ccc(F)cc2)NC(=O)[C@H](Cc2c[nH]cn2)NC1=O [KR-049] (Ac-[Nle][Lys(N3)]H[dPhe(4-F)]RW[Pra]-NH2; triazole 2-7) .
0.019 nM

###

Biological target: human recombinant MC1R (Homo sapiens)
Assay: cyclic AMP (cAMP) functional assay, MC1R stable cell line (CHO-K1);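 also: cells with test compound for 60 min at room temperature in buffer containing IBMX, then cAMP quantified by Eu-cAMP tracer and ULight anti-cAMP detection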
Details: cAMP functional assay
pIC50: −log10 of the molar value. Starred links: 1 amine or outer side, 2 acyl side, 3 side chain; linkers in the order of their positions; H or OH if unused. Positions of bridges follow the written chain, without caps; N, C: chain ends. Non-standard residues stand in square brackets, D forms with d. Residues, ends and D or L forms follow the SMILES beside them. Triazole bridges read from a SMILES are 1,4-linked. *: point of attachment. Benzoyl(3,5-(OH)2) = O=C(c1cc(O)cc(O)c1)*; Lys(N3) = [N-]=[N+]=NCCCC[C@H](N)C(=O)O; dPhe(4-F) = N[C@H](Cc1ccc(F)cc1)C(=O)O; Aad = N[C@@H](CCCC(=O)O)C(=O)O; Suc = O=C(CCC(=O)[*:2])[*:1]; Nle = CCCC[C@H](N)C(=O)O; Pra = C#CC[C@H](N)C(=O)O; Dab = NCC[C@H](N)C(=O)O
Respond with satisfied for pIC50 values of 10 and above, not satisfied for values below.

Some solved cases for reference:
CCCC[C@H](NC(C)=O)C(=O)N[C@H]1CCNC(=O)CCC(=O)NCC[C@@H](C(N)=O)NC(=O)[C@H](Cc2c[nH]c3ccccc23)NC(=O)[C@H](CCCNC(=N)N)NC(=O)[C@@H](Cc2ccccc2)NC(=O)[C@H](Cc2c[nH]cn2)NC1=O [KR-041] (Ac-[Nle][Dab]H[dF]RW[Dab]-NH2; linker 2-7 via Suc (inferred)): satisfied
CCCC[C@@H]1NC(=O)CSC[C@@H](C(N)=O)NC(=O)[C@H](CCCCN)NC(=O)CNC(=O)[C@H](Cc2c[nH]c3ccccc23)NC(=O)[C@H](CCCNC(=N)N)NC(=O)[C@H](Cc2ccccc2)NC(=O)[C@H](Cc2c[nH]cn2)NC(=O)[C@H](CCC(=O)O)NC1=O [KR-036] ({CH2CO}-[Nle]EHFRWGKC-NH2; thioether N-9): not satisfied

Field: next compound
Dear colleague, could you confirm whether CCCC[C@H](NC(=O)c1cc(O)cc(O)c1)C(=O)N[C@H]1CCCCn2cc(nn2)C[C@@H](C(=O)N[C@@H](CCCC(N)=O)C(N)=O)NC(=O)[C@H](Cc2c[nH]c3ccccc23)NC(=O)[C@H](CCCNC(=N)N)NC(=O)[C@@H](Cc2ccc(F)cc2)NC(=O)[C@H](Cc2c[nH]cn2)NC1=O [KR-071] ({Benzoyl(3,5-(OH)2)}-[Nle][Lys(N3)]H[dPhe(4-F)]RW[Pra][Aad](NH2)-NH2; triazole 2-7) has pIC50 at or above 10?
satisfied
